Reported SARS-CoV-2 infection rate by item:
Test system: Vero E6 infected with SARS-CoV-2
MEASUREMENT_NOTES: SARS-CoV-2 infection rate relative to infected DMSO; higher = more infection, active = 60 or less
RUN_PARAMETERS: 24 h
# unit: % | format: bare number

COMPOUND | SARS-CoV-2 infection rate (%)
C=C[C@@]1(C)CC(=O)[C@]2(O)[C@@]3(C)[C@@H](O)CCC(C)(C)[C@@H]3[C@H](OC(=O)CCN(C)C)[C@H](OC(C)=O)[C@@]2(C)O1 [colforsin-daproate] (0.833333 µM) | 88.5
CCCn1c(=O)c(C)cn2nc(N)nc12 (10 µM) | 96.5
CO/N=C1\C[C@]2(C[C@@H]3C[C@@H](C/C=C(\C)C[C@@H](C)/C=C/C=C4\CO[C@@H]5[C@H](O)C(C)=C[C@@H](C(=O)O3)[C@]45O)O2)O[C@H](/C(C)=C/C(C)C)[C@H]1C [moxidectin] (10 µM) | 98.5

Okay, now this compound:
Query: Provide one value: measured SARS-CoV-2 infection rate of C[N+]1([O-])[C@@H]2CC[C@H]1C[C@@H](OC(=O)C(CO)c1ccccc1)C2 (some centres not stated) [atropine-oxide] (10 µM)
Result: 106

* * *

Tested on: Vero E6 infected with SARS-CoV-2
MEASUREMENT_NOTES: inhibition of SARS-CoV-2 cytopathic effect; higher = more antiviral protection, active = above 15
RUN_PARAMETERS: 833.33 nM; 48 h
Reported inhibition of SARS-CoV-2 cytopathic effect by item:

Record excerpt, results attached:
COMPOUND | RECORDED_MEASUREMENT
COc1ccc(/C=C/C(=O)O)cc1 [trans-4-methoxycinnamic-acid] | -0.87% (inactive)
Cc1nc(NC(=O)N2CCC[C@H]2C(N)=O)sc1-c1ccnc(C(C)(C)C(F)(F)F)c1 [alpelisib] | -1.87% (inactive)
CN1C(C)(C)CCCC1(C)C [pempidine] | -1.68% (inactive)
CN1CCN(Cc2ccc(-c3cnc4[nH]cc(-c5ccc6[nH]ccc6c5)c4c3)cc2)CC1 | 21.6% (active)
Nc1nc(=O)c(Br)c(-c2ccccc2)[nH]1 [bropirimine] | -0.1% (inactive)

Query: Provide one value: measured inhibition of SARS-CoV-2 cytopathic effect of "O=C(NC[C@H](O)CN1CCc2ccccc2C1)c1cc(NC2COC2)ncn1"
Result: -3.82% (inactive)

Query: Provide one value: measured inhibition of SARS-CoV-2 cytopathic effect of "CC(=O)Oc1ccccc1C(=O)Oc1cccc(CO[N+](=O)[O-])c1"
Result: 0.32% (inactive)

Query: Provide one value: measured inhibition of SARS-CoV-2 cytopathic effect of COc1cc(Cc2cnc(N)nc2N)cc(OC)c1OC [trimethoprim]
Result: 2.08% (inactive)

Query: Provide one value: measured inhibition of SARS-CoV-2 cytopathic effect of "Nc1ccc(C(=O)Nc2cccc(-c3nc(N4CCOCC4)c4oc5ncccc5c4n3)c2)cn1"
Result: 0% (inactive)

Query: Provide one value: measured inhibition of SARS-CoV-2 cytopathic effect of O=C(O)c1cccnc1Nc1cccc(C(F)(F)F)c1 [niflumic-acid]
Result: 1.51% (inactive)

* * *

System: Vero E6 infected with SARS-CoV-2
MEASUREMENT_NOTES: morphology score (similarity to uninfected cells); higher = more like uninfected cells
RUN_PARAMETERS: 24 h
Reported morphology score by item:
Note: the reply should be a number with no unit written.

Record excerpt, results attached:
COMPOUND | morphology score
CC(C)(C)NC(=O)[C@@H]1CN(Cc2cccnc2)CCN1C[C@@H](O)C[C@@H](Cc1ccccc1)C(=O)N[C@H]1c2ccccc2C[C@H]1O [indinavir] (10 µM) | 0.0426
CC[N+](C)(CC)CC(=O)Nc1c(C)cccc1C [N-methyllidocaine-iodide] (10 µM) | 0.0478
CC(=O)OCC(=O)[C@@]12N=C(C)O[C@@H]1C[C@H]1[C@@H]3CCC4=CC(=O)C=C[C@]4(C)[C@H]3[C@@H](O)C[C@@]12C [Deflazacort (Calcort)] (10 µM) | 0.0216
O=C(CCN1CCN(C(=O)OCc2cc(Cl)cc(Cl)c2)CC1)c1ccc2[nH]c(=O)oc2c1 (10 µM) | 0.127
CCOC(=O)C1=C(C)NC(c2ccccc2)=C(C(=O)OCc2ccc([N+](=O)[O-])cc2)[C@@H]1C#Cc1ccccc1 (10 µM) | 0.304

Query: Provide one value: measured morphology score of S=C(NCc1ccc2c(c1)OCO2)N1CCN(c2ncnc3c2oc2ccccc23)CC1 [amuvatinib] (0.833333 µM)
Result: 0.0595

Query: Provide one value: measured morphology score of CCOc1c2c(c(OCC)c3ccccc13)C(=O)N(c1ccc(CC(=O)NS(=O)(=O)c3ccccc3)cc1)C2 (10 µM)
Result: 0.117

* * *

Reported SARS-CoV-2 infection rate by item:
System: Vero E6 infected with SARS-CoV-2
MEASUREMENT_NOTES: SARS-CoV-2 infection rate relative to infected DMSO; higher = more infection, active = 60 or less
RUN_PARAMETERS: 24 h

Record excerpt, results attached:
COMPOUND | SARS-CoV-2 infection rate
CC[N+](CC)(CCCNC1=CC(=O)C(NCCC[N+](CC)(CC)Cc2ccccc2)=CC1=O)Cc1ccccc1 [benzoquinonium-dibromide] (10 µM) | 113% (inactive)
Cc1ncc([N+](=O)[O-])n1CC(C)O (stereo not drawn) [secnidazole] (10 µM) | 99% (inactive)
Cn1nccc1Nc1nccc(-c2ccn([C@H](CO)c3ccc(Cl)c(F)c3)c(=O)c2)n1 (0.833333 µM) | 106% (inactive)

Query: Provide one value: measured SARS-CoV-2 infection rate of COCC1=C(C(=O)O)N2C(=O)[C@@H](NC(=O)/C(=N\OC)c3csc(N)n3)[C@H]2SC1 [cefpodoxime] (10 µM)
Result: 104% (inactive)

Query: Provide one value: measured SARS-CoV-2 infection rate of NCc1ccc(S(N)(=O)=O)cc1 [mafenide] (10 µM)
Result: 91% (inactive)

Query: Provide one value: measured SARS-CoV-2 infection rate of Cc1cc(NCCO)nc(-c2ccc(Br)cc2)n1 (10 µM)
Result: 101% (inactive)

Query: Provide one value: measured SARS-CoV-2 infection rate of O=C(CCBr)N1CC[N+]2(CC1)CC[N+]1(CCN(C(=O)CCBr)CC1)CC2 [spirobromin] (10 µM)
Result: 112% (inactive)

Query: Provide one value: measured SARS-CoV-2 infection rate of Cc1ccc2nc(NCCN)c3ncc(C)n3c2c1 (0.833333 µM)
Result: 116% (inactive)

* * *

Test system: Vero E6 infected with SARS-CoV-2
MEASUREMENT_NOTES: morphology score (similarity to uninfected cells); higher = more like uninfected cells
RUN_PARAMETERS: 24 h
Reported morphology score by item:

Record excerpt, results attached:
MOLECULE | morphology score
CC(=C(CCO)SSCC1CCCO1)N(C=O)Cc1cnc(C)nc1N (stereo in doubt) [fursultiamine] (10 µM) | 0.0723
CC(C)(c1ccc(O)cc1)c1ccc(O)cc1 [bisphenol-A] (10 µM) | 0.0642
C[C@H]1[C@H](C)CC[C@]2(C(=O)O)CC[C@]3(C)C(=CC[C@@H]4[C@@]5(C)C[C@@H](O)[C@H](O)[C@@](C)(CO)[C@@H]5CC[C@]43C)[C@H]12 [asiatic-acid] (10 µM) | -0.135
CC(C)N1Cc2cc(S(C)(=O)=O)ccc2N(CCN2CC=C(c3c[nH]c4cc(F)ccc34)CC2)S1(=O)=O (10 µM) | 0.178
CN1CCN(c2ccc(-c3cccc(CN4CCOCC4)c3)cc2NC(=O)c2c[nH]c(=O)cc2C(F)(F)F)CC1 (10 µM) | 0.0309
COc1ccc2[nH]c(SCc3ncc(C)c(OC)c3C)nc2c1 [omeprazole-sulfide] (10 µM) | 0.191

Okay, now this molecule:
Query: Provide one value: measured morphology score of C#CCN(C)[C@H](C)Cc1ccccc1 [selegiline] (10 µM)
Result: 0.0406

* * *

Reported SARS-CoV-2 infection rate by item:
Tested on: Vero E6 infected with SARS-CoV-2
MEASUREMENT_NOTES: SARS-CoV-2 infection rate relative to infected DMSO; higher = more infection, active = 60 or less
RUN_PARAMETERS: 24 h
# unit: % | format: bare number

Record excerpt, results attached:
COMPOUND | STUDY_SYSTEM | UNIT_DESCRIPTOR | SARS-CoV-2 infection rate
Nc1sc2c(c1C(=O)c1ccc(Cl)cc1)CCCC2 (10 µM) | Vero E6 infected with SARS-CoV-2 | % | 96.5
CC(C)(C)NCC(O)COc1ccc(NC(=O)NC2CCCCC2)cc1 (stereo not drawn) [talinolol] (10 µM) | Vero E6 infected with SARS-CoV-2 | % | 106
CC(C)(C)c1cc(C=C(C#N)C#N)cc(C(C)(C)C)c1O [tyrphostin-A9] (0.833333 µM) | Vero E6 infected with SARS-CoV-2 | % | 80.5
O=C(Nc1cccc(Nc2ncc(Br)c(NCCc3cnc[nH]3)n2)c1)N1CCCC1 (10 µM) | Vero E6 infected with SARS-CoV-2 | % | 110

Query: Provide one value: measured SARS-CoV-2 infection rate of O[C@H]1[C@H](O)[C@@H](O)CN2CC[C@H](O)[C@H]12 [castanospermine] (10 µM)
Result: 112

Query: Provide one value: measured SARS-CoV-2 infection rate of CC(C)(C)c1ccc(CN2CCN(C(c3ccccc3)c3ccc(Cl)cc3)CC2)cc1 (stereo not drawn) [buclizine] (10 µM)
Result: 90.5

Query: Provide one value: measured SARS-CoV-2 infection rate of COC(=O)[C@H]1[C@H]2C[C@@H]3c4[nH]c5cc(OC)ccc5c4CCN3C[C@H]2C[C@@H](OC(=O)c2cc(OC)c(OC)c(OC)c2)[C@@H]1OC [reserpine] (10 µM)
Result: 110

Query: Provide one value: measured SARS-CoV-2 infection rate of COc1cccc(-c2ccc([C@@H](Oc3cc(-c4ccc(C[C@H](N)C(=O)O)cc4)nc(N)n3)C(F)(F)F)cc2)c1 (10 µM)
Result: 102
